Recorded melting point for the following molecules

Check out these entries, answers already filled in.
Molecule	melting point
CN(Cc1cc(C(F)(F)F)cc(C(F)(F)F)c1)C(=O)C(c1ccccc1)N1CCN(C2CCCCC2)CC1 (centres unmarked)	> 240 °C (dec.)
O=C(NCc1cc(C(F)(F)F)cc(C(F)(F)F)c1)C(c1cccc(Br)c1)N1CCN(C2CCCCC2)CC1 (centres unmarked)	124 to 127 °C
O=C(O)CN(Cc1cc(C(F)(F)F)cc(C(F)(F)F)c1)C(=O)C(c1ccccc1)N1CCN(C2CCCCC2)CC1 (centres unmarked)	70 to 73 °C
O=C(NCCc1cc(C(F)(F)F)cc(C(F)(F)F)c1)C(c1ccccc1Cl)N1CCN(C2CCCCC2)CC1 (centres unmarked)	215 to 224 °C
CN(CCc1cc(C(F)(F)F)cc(C(F)(F)F)c1)C(=O)C(c1ccc(Cl)c(Cl)c1)N1CCC(N2CCCCC2)CC1 (centres unmarked)	244 to 246 °C (dec.)
COc1ccc(C(C(=O)N(C)CCc2cc(C(F)(F)F)cc(C(F)(F)F)c2)N2CCN(C3CCCCC3)CC2)cc1OC (centres unmarked)	123 to 133 °C (dec.)
COc1ccccc1C(C(=O)NCCc1cc(C(F)(F)F)cc(C(F)(F)F)c1)N1CCN(C2CCCCC2)CC1 (centres unmarked)	85 to 92 °C
O=C(NCc1cc(C(F)(F)F)cc(C(F)(F)F)c1)C(c1ccccc1)N1CCC(N2CCCCC2)CC1 (centres unmarked)	> 240 °C (dec.)
CN(CCc1cc(C(F)(F)F)cc(C(F)(F)F)c1)C(=O)C(c1ccccc1)N1CCN(c2ccccc2)CC1 (centres unmarked)	113 to 123 °C
CN(CCc1cc(C(F)(F)F)cc(C(F)(F)F)c1)C(=O)C(c1ccccc1)N1CCN(C2CCCCCC2)CC1 (centres unmarked)	110 to 120 °C

# lookup: melting point of COc1ccccc1C(C(=O)NCc1cc(C(F)(F)F)cc(C(F)(F)F)c1)N1CCN(C2CCCCC2)CC1 (centres unmarked)
142 to 150 °C

# lookup: melting point of CN(CCc1cc(C(F)(F)F)cc(C(F)(F)F)c1)C(=O)C(c1ccc2c(c1)OCO2)N1CCN(C2CCCCC2)CC1 (centres unmarked)
87 to 97 °C

# lookup: melting point of O=C(NC1CCN(C(C(=O)NCc2cc(C(F)(F)F)cc(C(F)(F)F)c2)c2ccccc2)CC1)c1ccccc1 (centres unmarked)
180 to 185 °C

# lookup: melting point of CN(CCc1cc(C(F)(F)F)cc(C(F)(F)F)c1)C(=O)C(c1ccc(Cl)c(Cl)c1)N1CCN(C2CCCCC2)CC1 (centres unmarked)
212 to 216 °C (dec.)

# lookup: melting point of O=C(NCc1cc(C(F)(F)F)cc(C(F)(F)F)c1)C(c1ccccc1)N1CCC2(CC1)C(=O)NCN2c1ccccc1 (centres unmarked)
205 to 210 °C

# lookup: melting point of O=C(NCc1cc(C(F)(F)F)cc(C(F)(F)F)c1)C(c1ccccc1Cl)N1CCN(C2CCCCC2)CC1 (centres unmarked)
120 to 122 °C

# lookup: melting point of O=C(NCc1cc(C(F)(F)F)cc(C(F)(F)F)c1)C(c1ccc(Cl)cc1)N1CCN(C2CCCCC2)CC1 (centres unmarked)
112 to 118 °C

# lookup: melting point of O=C(NCc1cc(C(F)(F)F)cc(C(F)(F)F)c1)C(c1ccc(F)cc1)N1CCN(C2CCCCC2)CC1 (centres unmarked)
> 240 °C

# lookup: melting point of CN(CCc1cc(C(F)(F)F)cc(C(F)(F)F)c1)C(=O)C(c1ccccc1)N1CCN(CC2CC2)CC1 (centres unmarked)
113 to 117 °C (dec.)

# lookup: melting point of CN(CCc1cc(C(F)(F)F)cc(C(F)(F)F)c1)C(=O)C(c1ccccc1)N1CCC(c2ccccc2)CC1.Cl (centres unmarked)
106 to 110 °C

# lookup: melting point of O=C(Nc1ccccc1)NC1CCN(C(C(=O)NCc2cc(C(F)(F)F)cc(C(F)(F)F)c2)c2ccccc2)CC1 (centres unmarked)
218 to 223 °C

# lookup: melting point of O=C(NCc1cc(C(F)(F)F)cc(C(F)(F)F)c1)C(c1ccccc1)N1CCC(Nc2ccccn2)CC1 (centres unmarked)
164 to 166 °C

# lookup: melting point of O=C(NCCCc1ccc(C(F)(F)F)cc1C(F)(F)F)C(c1ccccc1)N1CCN(C2CCCCC2)CC1 (centres unmarked)
118 to 123 °C

# lookup: melting point of O=C(NCc1cc(C(F)(F)F)cc(C(F)(F)F)c1)C(c1ccccc1)N1CCC(n2c(=O)[nH]c3cccnc32)CC1 (centres unmarked)
208 to 210 °C

# lookup: melting point of O=C(Nc1ccccc1)C1CCN(C(C(=O)NCc2cc(C(F)(F)F)cc(C(F)(F)F)c2)c2ccccc2)CC1 (centres unmarked)
> 240 °C (dec.)

These data points were gathered from patent US6413959B1.
